Tested on: Sonic hedgehog protein (Shh)
Test: small-molecule binders of Shh protein, primary screen, biochemical, small-molecule microarray, 635/667 nm fluorescence (AID 1151);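 also: Shh protein binding to compounds spotted on small-molecule microarray slides; score combines spot fluorescence intensity with signal-to-noise across triplicate slides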
Conditions: small-molecule microarray binding, 635 nm fluorescence; higher = more signal
Measured composite z-score of individual entries

>  <COMPOUND>
C[C@H]1NC(=O)[C@H](Cc2ccccc2)NC(=O)[C@@]23C(=O)N[C@@H](Cc4ccccc4)C2[C@H](C)[C@@]2(C)O[C@H]2C3/C=C/C/C=C\CNC1=O (stereo partly drawn)

>  <composite z-score>
0.249

$$$$
>  <COMPOUND>
COCCOC(=O)N1C(=O)[C@@]2(c3ccccc31)[C@H](C(=O)Nc1nc3ccccc3s1)[C@H]1C(=O)O[C@H](c3ccccc3)[C@H](c3ccccc3)N1[C@@H]2c1ccc(OCCO)cc1

>  <composite z-score>
1.12

$$$$
>  <COMPOUND>
COCCOC(=O)N1C(=O)[C@@]2(c3cc(C#CC4=CCCCC4)ccc31)[C@H](C(=O)N1CCc3cc(OC)c(OC)cc3C1)[C@H]1C(=O)O[C@H](c3ccccc3)[C@H](c3ccccc3)N1[C@@H]2c1ccccc1OCCO

>  <composite z-score>
2.05

$$$$
>  <COMPOUND>
COc1ccc(C(O)C2C=CC3C(=O)N(c4ccccc4)C(=O)C3N2Nc2ccc([N+](=O)[O-])cc2)cc1OCc1ccccc1 (stereo not drawn)

>  <composite z-score>
-0.381

$$$$
>  <COMPOUND>
C=CCNC(=O)[C@H]1[C@@H]2C(=O)O[C@@H](c3ccccc3)[C@@H](c3ccccc3)N2[C@@H](c2ccc(O)cc2)[C@]12C(=O)N(C(=O)OCCOC)c1ccc(C#CCCO)cc12

>  <composite z-score>
1.08

$$$$
>  <COMPOUND>
[N-]=[N+]=NCc1ccccc1[C@@H]1OC(c2ccc(OCCCO)cc2)=N[C@]1(Cc1ccccc1)C(=O)N1CCCCC1

>  <composite z-score>
0.0721

$$$$
>  <COMPOUND>
CCOC(=O)C1=CCC(c2ccc([N+](=O)[O-])cc2)N(S(=O)(=O)c2ccc(C)cc2)C1 (stereo not drawn)

>  <composite z-score>
-0.377

$$$$
>  <COMPOUND>
O=C1C[C@@](C(=O)NC2CC2)(c2ccc([N+](=O)[O-])cc2)[C@@H](c2ccc(CO)cc2)N1CC12CC3CC(CC(C3)C1)C2

>  <composite z-score>
0.777

$$$$
>  <COMPOUND>
C=CCC(OC(C)=O)[C@@H]1[C@@H](N(Cc2ccc(-c3ccccc3)cc2)C(=O)Cc2ccc(F)cc2)c2cc(OCCCO)ccc2N1C(=O)c1ccc2ccccc2n1 (stereo partly drawn)

>  <composite z-score>
0.321

$$$$
>  <COMPOUND>
O=C1OCCC/C=C\[C@H]2OC34C=CCN(Cn5nnc6ccccc65)C(=O)[C@H]3N(CCCCCO)C(=O)[C@@H]4C12 (stereo partly drawn)

>  <composite z-score>
0.436

$$$$
>  <COMPOUND>
[N-]=[N+]=NCc1ccccc1C[C@]1(C(=O)NCCN2CCOCC2)N=C(c2ccc(OCCCO)cc2)O[C@H]1c1ccccc1N=[N+]=[N-]

>  <composite z-score>
-0.0478

$$$$
>  <COMPOUND>
CC(C)CNC(=O)[C@@]1(c2ccc([N+](=O)[O-])cc2)CC(=O)N(CC23CC4CC(CC(C4)C2)C3)[C@@H]1c1ccc(CO)cc1

>  <composite z-score>
1.04

$$$$
>  <COMPOUND>
COc1ccc(CCN2C(=O)[C@@]3(Cc4ccccc42)c2ccccc2C(=O)N(Cc2ccccc2Cl)[C@H]3c2ccc(CO)cc2)cc1

>  <composite z-score>
-0.801

$$$$
